B1: PTPN9 (parent)
chain: ILFSLPPALDWDSVHVPGPHAMTI

Variants of: B1
Test: protein stability index of a GFP-peptide fusion (GPS, HEK-293T) (PSI 1-6); higher = more stable;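 also: lentivirally expressed fusions sorted by FACS into six bins by GFP to DsRed ratio, PSI derived from sequencing read proportions per bin multiplied by bin number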
Conditions: c terminus: a fixed tail appended
# protein stability index values compiled below
Number only, no unit.

>  <changes>
S4F

>  <quantity>
protein stability index

>  <result.number>
2.61

$$$$
>  <changes>
L5R

>  <quantity>
protein stability index

>  <result.number>
2.93

$$$$
>  <changes>
T23P

>  <quantity>
protein stability index

>  <result.number>
1.2

$$$$

Ask: Supply measured protein stability index of "H20D" in your reply.
Reply: 2.29

Ask: Supply measured protein stability index of "V14L" in your reply.
Reply: 3.32

Ask: Supply measured protein stability index of "H20T" in your reply.
Reply: 2.16

Ask: Supply measured protein stability index of "T23D" in your reply.
Reply: 2.6

Ask: Supply measured protein stability index of "T23K" in your reply.
Reply: 2.87

Ask: Supply measured protein stability index of "P6A" in your reply.
Reply: 3.2

Ask: Supply measured protein stability index of "A21G" in your reply.
Reply: 2.96

Ask: Supply measured protein stability index of "V14E" in your reply.
Reply: 1.95
